The measurements presented in this section are drawn from patent US10633379B2.

biological target: BRD4 (BDI_K57-E168) (Homo sapiens (Human), UniProt O60885); assay: TR-FRET bromodomain binding assay, BRD4 BDI; details: mean Ki, calculated from IC50, probe Kd and probe concentration
pKi: −log10 of the molar value.
readoutName: pKi

Below: 2 compounds and their reported pKi.
{"compound": "Cc1cc(F)cc(Cl)c1Oc1ccc(C(C)(C)O)cc1-c1cn(C)c(=O)c2[nH]c(C(=O)NC(C)(C)C)cc12", "pKi": 6.36}
{"compound": "CCNC(=O)c1cc2c(-c3cc(C4(O)CCCC4)cnc3Oc3c(C)cccc3C)cn(C)c(=O)c2[nH]1", "pKi": 6.56}

A = CCNC(=O)c1cc2c(-c3cc(C(C)(C)O)cnc3Oc3c(C)cc(F)cc3C)cn(C)c(=O)c2[nH]1
B = CCNC(=O)c1cc2c(-c3cc(C(C)(C)O)cnc3Oc3c(C)cc(F)cc3Cl)cn(C)c(=O)c2[nH]1
Given A and B , report the one with the higher recorded pKi. // respond with label for picked entry B
(B: 6.49, A: 6.28)

A = CCNC(=O)c1cc2c(-c3cc(C(C)(O)C(C)C)cnc3Oc3c(C)cccc3C)cn(C)c(=O)c2[nH]1 (stereo not drawn)
B = CCNC(=O)c1cc2c(-c3cc(C(C)(C)O)ccc3Oc3c(C)cc(S(C)(=O)=O)cc3C)cn(C)c(=O)c2[nH]1
From the items above, decide which of A and B has the lower pKi reading. Bench note: the answer is the label of the chosen record. B
(B: 6.36, A: 6.71)

* * *

target: BRD4 (BDII_E352-M457) (Homo sapiens (Human), UniProt O60885); assay: TR-FRET bromodomain binding assay, BRD4 BDII; conditions: mean Ki, calculated from IC50, probe Kd and probe concentration
readoutName: Ki (nM)

Worked examples follow.
{"molecule": "CCNC(=O)c1cc2c(-c3cc([C@@](C)(O)CO)ccc3Oc3c(C)cccc3C)cn(C)c(=O)c2[nH]1 (single isomer, unassigned)", "targetOrTestSystem": "BRD4 (BDII_E352-M457) (Homo sapiens (Human), UniProt O60885)", "unitsLabel": "nM", "Ki": 2.2}
{"molecule": "Cc1cccc(C)c1Oc1ccc(C(C)(C)O)cc1-c1cn(C)c(=O)c2[nH]c(C(=O)NC(C)(C)C)cc12", "targetOrTestSystem": "BRD4 (BDII_E352-M457) (Homo sapiens (Human), UniProt O60885)", "unitsLabel": "nM", "Ki": 2.8}

a = CCNC(=O)c1cc2c(-c3cc(C(O)(C(C)C)C4CC4)cnc3Oc3c(C)cccc3C)cn(C)c(=O)c2[nH]1 (stereo not shown)
b = CCNC(=O)c1cc2c(-c3cc(C(O)(CC)CCc4ccccc4)cnc3Oc3c(C)cccc3C)cn(C)c(=O)c2[nH]1 (stereo not shown)
Pick one, a or b : lowest reported Ki. State your choice using its label. a
(a: 1.5 nM, b: 2.3 nM)
